Value source: the supplement of paper PMC3545927

Biological target: furin, P09958;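 also: purified furin at 1:10 enzyme:substrate in 50 mM HEPES pH 7.5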
Sequence (P09958 whole entry): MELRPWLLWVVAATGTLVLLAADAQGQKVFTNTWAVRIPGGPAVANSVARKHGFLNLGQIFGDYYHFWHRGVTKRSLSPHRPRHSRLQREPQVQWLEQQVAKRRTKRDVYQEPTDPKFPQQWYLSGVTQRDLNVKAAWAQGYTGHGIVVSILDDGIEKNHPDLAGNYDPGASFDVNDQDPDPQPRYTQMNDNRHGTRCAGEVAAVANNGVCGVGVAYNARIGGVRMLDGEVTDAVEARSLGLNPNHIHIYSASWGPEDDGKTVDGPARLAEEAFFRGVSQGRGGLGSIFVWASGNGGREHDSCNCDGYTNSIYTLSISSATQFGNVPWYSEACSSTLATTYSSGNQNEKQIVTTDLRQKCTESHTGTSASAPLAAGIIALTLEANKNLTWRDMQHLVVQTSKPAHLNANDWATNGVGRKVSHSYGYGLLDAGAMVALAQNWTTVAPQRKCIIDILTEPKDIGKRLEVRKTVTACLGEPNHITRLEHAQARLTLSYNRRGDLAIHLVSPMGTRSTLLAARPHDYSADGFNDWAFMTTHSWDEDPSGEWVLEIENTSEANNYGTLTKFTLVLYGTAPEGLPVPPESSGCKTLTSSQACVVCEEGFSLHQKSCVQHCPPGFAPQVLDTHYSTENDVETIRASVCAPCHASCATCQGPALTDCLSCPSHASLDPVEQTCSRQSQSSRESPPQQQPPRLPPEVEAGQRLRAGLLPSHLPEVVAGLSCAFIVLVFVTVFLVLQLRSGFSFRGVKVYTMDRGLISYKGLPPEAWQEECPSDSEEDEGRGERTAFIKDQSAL
Experiment: furin cleavage Z-score vs untreated control; higher = more cleavage, active = 3.5 or more, inactive = 1 or less, 8 variable residues between constant flanks
Conditions: 30 min
This is one part of the list. How many sequences the whole screen found active is unknown.
Your response should consist of one outcome taken from active, inactive

{"residue.sequence": "CATMRIVGPRAGNASASA [HC1182]", "discrete.label": "inactive"}
{"residue.sequence": "CAQRQRAKRNAGNASASA [FS-1252]", "discrete.label": "active"}
{"residue.sequence": "CARAKRVSWDAGNASASA [FS-1681]", "discrete.label": "inactive"}
{"residue.sequence": "CAQRQKKVTFAGNASASA [HC1394]", "discrete.label": "inactive"}
{"residue.sequence": "CAHFKRTRRSAGNASASA [FS-1532]", "discrete.label": "active"}

State the result this test recorded for CAKCPRQRRAAGNASASA [FS-445] .
active

State the result this test recorded for CANVDQDLVGAGNASASA [HC712] .
inactive

State the result this test recorded for CATPLPAPNYAGNASASA [HC1196] .
inactive

State the result this test recorded for CASTPCSASLAGNASASA [HC2557] .
inactive

State the result this test recorded for CATTPCSGSTAGNASASA [HC1938] .
inactive

State the result this test recorded for CASVCGPVYCAGNASASA [HC411] .
inactive

State the result this test recorded for CAGMVSKGWRAGNASASA [HC669] .
inactive

State the result this test recorded for CALLMCAVHPAGNASASA [HC598] .
inactive

State the result this test recorded for CAVRCCSMSYAGNASASA [HC2013] .
inactive

State the result this test recorded for CALRLRGPRAAGNASASA [FS-943] .
active
